Quick reference: self-aminoacylation of the listed items.
Tested on: biotinyl-Met-oxazolone
Assay: self-aminoacylation, catalytic enhancement (BMO) (fold over background); higher = more active; k-Seq, kA / k0A0; sequences stand for … in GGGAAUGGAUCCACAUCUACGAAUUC…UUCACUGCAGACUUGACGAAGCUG
Fewer inactive variants are shown than the library holds.

> print(dat)
                           sequence.content            study.target  experimental.value
1  AUUACCCUGGUCAUUUAGUGA [Fam2.1 aminoacylation ribozyme variant]  biotinyl-Met-oxazolone                11.7

INPUT: GET /values?readout=self-aminoacylation&item= GUUCACCUCGGUCAUCGGGUG [Fam2.2 aminoacylation ribozyme variant]
OUTPUT: 4.1

INPUT: // repeat for AUUUCCCUGGUCAUGGAGUGA [Fam2.1 aminoacylation ribozyme variant] and report
OUTPUT: 4.2

INPUT: Cool, now AUUUCGCUGGUCAUCGAGUGA [Fam2.1 aminoacylation ribozyme variant]
OUTPUT: 4.64

INPUT: Consider next the sequence AAGUUUGCUAAUAGUGGCAUG [Fam3.1 aminoacylation ribozyme variant] in the same way.
OUTPUT: 0.821

INPUT: // same read-out, input: CCACACAUCAAGCCAUCGGUC [Fam1B.1 aminoacylation ribozyme variant]
OUTPUT: 1.04
